target: cloned human V2 receptor (Homo sapiens); construct: expressed in transfected cells; assay: In-vitro vasopressin receptor binding assay, V2; conditions: 1 μM test compound; 3H-arginine-8-vasopressin
So I've got a bunch of compounds here, and I need their Receptor Binding (% Inh. @ concentration in μM) V2 values.
Answers are plain numbers, in % @ 1.

Previously resolved entries follow.
Compound	Unit spec	Endpoint result
O=C(Nc1ccc(CN2C(=O)CC(CCO)Sc3ccccc32)cc1)c1ccccc1-c1ccccc1 (centres unmarked)	% @ 1	43
O=C(Nc1ccc(S(=O)(=O)N2CCC(CCO)Sc3ccccc32)cc1)c1ccccc1-c1ccccc1 (centres unmarked)	% @ 1	27
CNCCC1CCN(C(=O)c2ccc(NC(=O)c3ccccc3C)cc2)c2ccccc2S1 (centres unmarked)	% @ 1	28
Cc1ccccc1C(=O)Nc1ccc(C(=O)N2CCC(CCN)Sc3ccccc32)cc1 (centres unmarked)	% @ 1	47

Moving on to another compound below.
Query :: Item: Cc1ccccc1C(=O)Nc1ccc(CN2C(=O)CC(CCO)Sc3ccccc32)cc1 (centres unmarked) Test system: cloned human V2 receptor (Homo sapiens) Read-out: Receptor Binding (% Inh. @ concentration in μM) V2 Value: ?
Result :: 33

----------
target: UniProt:P37288; experiment: In-vitro vasopressin receptor binding assay, V1a; details: 10 μM test compound
Respond with yes for Receptor Binding (% Inh. @ concentration in μM) V1a values of 30 % @ 10 and above, no for values below.

Compound	Label
Cc1ccccc1C(=O)Nc1ccc(S(=O)(=O)N2CCC(CCO)Sc3ccccc32)cc1 (centres unmarked)	no
CN(C)CCC1CCN(C(=O)c2ccc(NC(=O)c3ccccc3-c3ccccc3)cc2)c2ccccc2S1 (centres unmarked)	yes
COc1ccc(CNCCC2CC(=O)N(Cc3ccc(NC(=O)c4ccccc4C)cc3)c3ccccc3S2)c(OC)c1 (centres unmarked)	yes

Query :: Has Cc1ccccc1C(=O)Nc1ccc(CN2C(=O)CC(CCN)Sc3ccccc32)cc1 (centres unmarked) a recorded Receptor Binding (% Inh. @ concentration in μM) V1a greater than or equal to 30 % @ 10?
Result :: no

Query :: Has CN(C)CCC1CCN(C(=O)c2ccc(N)cc2)c2ccccc2S1 (centres unmarked) a recorded Receptor Binding (% Inh. @ concentration in μM) V1a greater than or equal to 30 % @ 10?
Result :: yes

----------
target: vasopressin V1a receptor (Homo sapiens); test: In-vitro vasopressin receptor binding assay, V1a; settings: 0.1 μM test compound
Sequence (P37288 whole entry): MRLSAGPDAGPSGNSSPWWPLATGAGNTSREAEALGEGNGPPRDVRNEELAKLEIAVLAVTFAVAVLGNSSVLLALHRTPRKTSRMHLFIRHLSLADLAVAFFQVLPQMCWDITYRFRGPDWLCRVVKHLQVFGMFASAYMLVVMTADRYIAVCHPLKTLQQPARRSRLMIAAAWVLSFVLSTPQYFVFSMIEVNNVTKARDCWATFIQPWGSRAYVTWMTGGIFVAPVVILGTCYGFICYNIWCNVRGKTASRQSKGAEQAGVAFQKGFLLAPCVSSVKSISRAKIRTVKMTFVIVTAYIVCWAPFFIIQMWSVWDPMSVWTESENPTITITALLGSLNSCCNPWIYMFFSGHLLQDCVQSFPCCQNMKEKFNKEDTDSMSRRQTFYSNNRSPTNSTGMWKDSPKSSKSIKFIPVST
Measurement name: Receptor Binding (% Inh. @ concentration in μM) V1a (% @ .1)
Numbers only, in % @ .1.

Previously resolved entries follow.
Molecule	Endpoint result
O=C(Nc1ccc(C(=O)N2CCC(CCO)S(=O)(=O)c3ccccc32)cc1)c1ccccc1-c1ccccc1 (stereo not shown)	2
COC(=O)CC1CCN(C(=O)c2ccc(NC(=O)c3ccccc3-c3ccccc3)cc2)c2ccccc2S1 (stereo not shown)	17

Moving on to another molecule below.
Query :: Looking for the measured Receptor Binding (% Inh. @ concentration in μM) V1a of N#CCCC1CCN(C(=O)c2ccc(NC(=O)c3ccccc3-c3ccccc3)cc2)c2ccccc2S1 (stereo not shown) , can you help?
Result :: 34

----------
So I've got a bunch of molecules here, and I need their Receptor Binding (% Inh. @ concentration in μM) V2 values.
biological target: cloned human V2 receptor (Homo sapiens, UniProt P30518); construct: expressed in transfected cells; experiment: In-vitro vasopressin receptor binding assay, V2; details: 10 μM test compound; 3H-arginine-8-vasopressin
Sequence (P30518 whole entry): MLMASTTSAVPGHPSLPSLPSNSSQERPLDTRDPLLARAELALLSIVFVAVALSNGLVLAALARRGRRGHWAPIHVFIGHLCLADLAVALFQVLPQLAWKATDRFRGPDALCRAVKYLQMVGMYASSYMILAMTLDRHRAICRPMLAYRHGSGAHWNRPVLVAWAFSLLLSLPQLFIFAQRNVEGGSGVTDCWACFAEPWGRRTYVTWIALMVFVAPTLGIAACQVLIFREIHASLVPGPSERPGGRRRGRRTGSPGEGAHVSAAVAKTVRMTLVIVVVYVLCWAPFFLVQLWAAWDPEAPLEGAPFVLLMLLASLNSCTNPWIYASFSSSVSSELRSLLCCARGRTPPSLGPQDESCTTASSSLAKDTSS

Previously resolved entries follow.
Molecule	Tested system	Endpoint result
CN(C)CCC1CCN(C(=O)c2ccc(N)cc2)c2ccccc2S1 (stereo not shown)	cloned human V2 receptor (Homo sapiens, UniProt P30518)	6% @ 10
Cc1ccccc1C(=O)Nc1ccc(CN2C(=O)CC(CCN)Sc3ccccc32)cc1 (stereo not shown)	cloned human V2 receptor (Homo sapiens, UniProt P30518)	4% @ 10

Please look at the items below and tell me Receptor Binding (% Inh. @ concentration in μM) V2 for each one, in order.
1. Cc1ccccc1C(=O)Nc1ccc(C(=O)N2CCC(CCN(C)C)Sc3ccccc32)cc1 (stereo not shown)
2. COc1ccc(CNCCC2CC(=O)N(Cc3ccc(NC(=O)c4ccccc4C)cc3)c3ccccc3S2)c(OC)c1 (stereo not shown)

Result ::
1: 63% @ 10; 2: 32% @ 10
